Source: paper PMC13237026

# target.under.test: mP2X1 receptor (Mus musculus, UniProt P51576, K140A)
# Sequence (P51576 whole entry K140A): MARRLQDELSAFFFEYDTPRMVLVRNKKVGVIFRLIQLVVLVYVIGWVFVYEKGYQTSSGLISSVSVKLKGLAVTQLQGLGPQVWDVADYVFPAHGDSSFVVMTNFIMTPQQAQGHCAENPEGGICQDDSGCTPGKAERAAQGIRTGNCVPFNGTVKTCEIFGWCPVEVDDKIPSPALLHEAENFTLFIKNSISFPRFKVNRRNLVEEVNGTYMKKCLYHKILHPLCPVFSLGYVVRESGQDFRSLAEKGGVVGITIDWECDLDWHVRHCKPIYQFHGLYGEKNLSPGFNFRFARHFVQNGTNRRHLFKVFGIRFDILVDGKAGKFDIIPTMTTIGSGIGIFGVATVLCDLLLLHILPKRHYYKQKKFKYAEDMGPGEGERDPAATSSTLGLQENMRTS
# test.details: cell-based
endpoint.name: EC50 (µM)
Answer with a number only, understood to be in µM.

State the recorded EC50 for this entry: Nc1ncnc2c1ncn2[C@@H]1O[C@H](COP(=O)(O)OP(=O)(O)OP(=O)(O)O)[C@@H](O)[C@H]1O [ATP] 10.3

* * *

# target.under.test: mP2X1 receptor (Mus musculus, UniProt P51576)
# Sequence (P51576 whole entry): as the sequence (P51576 whole entry K140A) above, with A140K counted along it
# test.details: whole-cell patch clamp, HEK293, ATP-evoked mixed-cation current
endpoint.name: IC50 (µM)
Provide the reading as a plain figure in µM.

For the compound shown here, Nc1cc(C(F)(F)F)cc(C(F)(F)F)c1 [BTFA, 3,5-bis(trifluoromethyl)aniline] , give the reported IC50. 4.3
